Value source: paper PMC12314051

Test system: MCF-7 cells
Test Name: MTT cytotoxicity assay, MCF-7
Format: cell-based
Measurement Setup: Homo sapiens, MCF7; MCF-7, MTT assay; read-out: IC50 (mean ± SD)
In this section, each of the compounds is paired with its reported IC50.
Measurement Kind: IC50 (µM)

Compound	Assayed Target	Endpoint Value
COc1ccc(-c2cc(-c3c(Sc4nc5ccccc5c(=O)n4-c4ccccc4)coc3C)ncc2C#N)cc1 [Compound 5]	MCF-7 cells	50
CC(=O)c1c(Sc2nc3ccccc3c(=O)n2-c2ccccc2)coc1C [Compound 2]	MCF-7 cells	54.9
Cc1occ(Sc2nc3ccccc3c(=O)n2-c2ccccc2)c1C1=NN(C(N)=S)C(c2ccc(F)cc2)C1 (stereo not shown) [Compound 8b]	MCF-7 cells	76.1
Cc1occ(Sc2nc3ccccc3c(=O)n2-c2ccccc2)c1C1=NN(c2nc(Cl)cs2)C(c2ccc(Cl)cc2)C1 (stereo not shown) [Compound 9]	MCF-7 cells	58
Cc1occ(Sc2nc3ccccc3c(=O)n2-c2ccccc2)c1C1=NNC(c2ccc(Cl)cc2)C1 (stereo not shown) [Compound 7]	MCF-7 cells	45.8
Cc1occ(Sc2nc3ccccc3c(=O)n2-c2ccccc2)c1C(=O)C=Cc1ccc(Cl)cc1 [Compound 3a]	MCF-7 cells	37.9
Cc1occ(Sc2nc3ccccc3c(=O)n2-c2ccccc2)c1C1CC(c2ccc(F)cc2)Nc2ccccc2N1 (stereo not shown) [Compound 6a]	MCF-7 cells	33.6

###

Assayed Target: VEGFR-2 (Homo sapiens, UniProt P35968)
Sequence (P35968 20-1356): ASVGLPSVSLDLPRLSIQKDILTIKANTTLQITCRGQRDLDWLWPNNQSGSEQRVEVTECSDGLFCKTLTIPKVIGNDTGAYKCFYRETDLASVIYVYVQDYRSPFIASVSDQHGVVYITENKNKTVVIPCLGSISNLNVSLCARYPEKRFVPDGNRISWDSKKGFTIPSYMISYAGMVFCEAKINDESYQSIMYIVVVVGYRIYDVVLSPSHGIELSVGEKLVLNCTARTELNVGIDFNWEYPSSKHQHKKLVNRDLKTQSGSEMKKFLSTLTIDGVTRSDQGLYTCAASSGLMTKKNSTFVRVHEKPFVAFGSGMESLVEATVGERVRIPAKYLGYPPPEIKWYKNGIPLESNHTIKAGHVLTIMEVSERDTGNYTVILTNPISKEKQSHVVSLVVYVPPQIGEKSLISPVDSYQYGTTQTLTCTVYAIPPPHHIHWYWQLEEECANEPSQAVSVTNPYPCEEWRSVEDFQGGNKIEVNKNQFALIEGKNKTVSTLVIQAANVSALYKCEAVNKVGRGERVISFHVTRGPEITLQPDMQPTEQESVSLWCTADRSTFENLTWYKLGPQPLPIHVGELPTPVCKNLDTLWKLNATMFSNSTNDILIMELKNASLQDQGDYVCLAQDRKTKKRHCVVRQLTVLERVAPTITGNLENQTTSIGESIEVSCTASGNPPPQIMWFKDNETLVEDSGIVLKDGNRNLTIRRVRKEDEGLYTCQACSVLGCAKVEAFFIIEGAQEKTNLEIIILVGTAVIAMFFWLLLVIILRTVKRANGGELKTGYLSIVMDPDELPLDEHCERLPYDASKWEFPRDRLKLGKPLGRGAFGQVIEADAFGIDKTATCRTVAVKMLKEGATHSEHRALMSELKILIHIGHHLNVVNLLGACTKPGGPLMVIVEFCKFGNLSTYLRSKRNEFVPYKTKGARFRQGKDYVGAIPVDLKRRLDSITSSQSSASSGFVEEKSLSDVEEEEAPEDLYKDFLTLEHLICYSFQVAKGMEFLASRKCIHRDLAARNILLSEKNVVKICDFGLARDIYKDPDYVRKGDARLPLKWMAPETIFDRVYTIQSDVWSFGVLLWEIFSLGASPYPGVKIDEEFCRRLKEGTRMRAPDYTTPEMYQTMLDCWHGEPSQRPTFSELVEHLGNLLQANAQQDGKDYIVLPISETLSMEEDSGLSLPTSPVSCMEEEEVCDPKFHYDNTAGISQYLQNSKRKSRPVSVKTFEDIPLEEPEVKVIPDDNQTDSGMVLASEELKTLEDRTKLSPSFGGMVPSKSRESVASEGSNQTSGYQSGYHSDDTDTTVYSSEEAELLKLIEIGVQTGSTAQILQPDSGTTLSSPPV
pIC50: −log10 of the molar value.

Molecule	pIC50
Cc1occ(Sc2nc3ccccc3c(=O)n2-c2ccccc2)c1C1=NN(C(=S)N=Cc2ccc(C=O)s2)C(c2ccc(F)cc2)C1 (centres unmarked)	4.40
O=C(CCl)Sc1nc2ccccc2c(=O)n1-c1ccccc1	4.15

###

Tested on: HepG-2, HCT-116 and MCF-7 cell lines
Test Name: MTT cytotoxicity, all screened cancer cell lines together (SAR summary)
Type: cell-based, human
Measurement Setup: HepG-2, HCT-116 and MCF-7 cell lines

Compound	cytotoxic activity in words (SAR study)
Cc1occ(Sc2nc3ccccc3c(=O)n2-c2ccccc2)c1C1CC(c2ccc(F)cc2)Nc2ccccc2N1 (stereo not drawn) [Compound 6a]	Weak activity
Cc1occ(Sc2nc3ccccc3c(=O)n2-c2ccccc2)c1C1=NN(C(=S)N=Cc2ccc(C=O)s2)C(c2ccc(F)cc2)C1 (stereo not drawn) [Compound 10]	Excellent activity
Cc1occ(Sc2nc3ccccc3c(=O)n2-c2ccccc2)c1C1=NN(c2nc(Cl)cs2)C(c2ccc(Cl)cc2)C1 (stereo not drawn) [Compound 9]	weak activity
Cc1occ(Sc2nc3ccccc3c(=O)n2-c2ccccc2)c1C1=NNC(c2ccc(Cl)cc2)C1 (stereo not drawn) [Compound 7]	weak activity
CCOC(=O)C1C(=O)C=C(c2c(Sc3nc4ccccc4c(=O)n3-c3ccccc3)coc2C)CC1c1ccc(F)cc1 (stereo not drawn) [Compound 4]	Weak activity
Cc1occ(Sc2nc3ccccc3c(=O)n2-c2ccccc2)c1C1=NN(C(N)=S)C(c2ccc(Cl)cc2)C1 (stereo not drawn) [Compound 8a]	Excellent activity
Cc1occ(Sc2nc3ccccc3c(=O)n2-c2ccccc2)c1C1CC(c2ccco2)Nc2ccccc2N1 (stereo not drawn) [Compound 6b]	Excellent activity
Cc1occ(Sc2nc3ccccc3c(=O)n2-c2ccccc2)c1C1=NN(C(N)=S)C(c2ccc(F)cc2)C1 (stereo not drawn) [Compound 8b]	Weak activity
COc1ccc(-c2cc(-c3c(Sc4nc5ccccc5c(=O)n4-c4ccccc4)coc3C)ncc2C#N)cc1 [Compound 5]	Weak activity
